- assay_system: T1, TGFβ2 (transforming growth factor beta 2) (Homo sapiens, UniProt P61812 SEQ:1-112)
- T1 sequence: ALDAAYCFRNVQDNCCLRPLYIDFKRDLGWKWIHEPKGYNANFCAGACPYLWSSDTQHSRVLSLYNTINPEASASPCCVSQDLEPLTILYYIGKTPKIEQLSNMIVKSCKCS
- run_description: filter
- conditions_used: chain copies: 2 (homodimer, stated)
quantity_kind: binding result

1) 8.23 (ssRNA, 2'-F C and U; 2'-OH A and G) RNA: GGGAGGACGAUGCGGAGACAUCUUUGUCUCGAUUAGUCAUGUUCCUUACCUGCCCCAGACGACUCGCCCGA :: no binding
2) 8.48 (ssRNA, 2'-F C and U; 2'-OH A and G) RNA: GGGAGGACGAUGCGGAAGUAACGUUGAAGUAAAAUUCGUUCUCUCGGUAUUGGCCAGACGACUCGCCCGA :: binds
3) 8.40 (ssRNA, 2'-F C and U; 2'-OH A and G) RNA: GGGAGGACGAUGCGGCCCAUUAGUCCUCAUUAGUCCCCUGUGCCCCAGACGACUCGCCCGA :: no binding
4) 8.28 (ssRNA, 2'-F C and U; 2'-OH A and G) RNA: GGGAGGACGAUGCGGAUGAGACCUAAUCAUCGAUCCGCUAUCUAAAACCUCACCCCAGACGACUCGCCCGA :: no binding
5) 8.3 (ssRNA, 2'-F C and U; 2'-OH A and G) RNA: GGGAGGACGAUGCGGAAGUAACGUUGAAGUAAAAUUCGUUCUCUCGGCAUUUGGCCAGACGACUCGCCCGA :: binds
6) 8.9 (ssRNA, 2'-F C and U; 2'-OH A and G) RNA: GGGAGGACGAUGCGGAAGUAACGUUGAAGUAAAAUUCGUUCUCUCGGUAUUUGGCCAGACGACUCGCCCGA :: binds
7) 8.8 (ssRNA, 2'-F C and U; 2'-OH A and G) RNA: GGGAGGACGAUGCGGAUAGAUCGGUCCGAUAAGUCUUUCAUCUUUACCUGGCCCCCAGACGACUCGCCCGA :: no binding
8) 8.5 (ssRNA, 2'-F C and U; 2'-OH A and G) RNA: GGGAGGACGAUGCGGUCCUAACCAUCACAAUCUCAAUUCUUAUAUUUUCCCGCCCCAGACGACUCGCCCGA :: no binding

Provide each entry's binding result from the list below.
1. 8.18 (ssRNA, 2'-F C and U; 2'-OH A and G) RNA: GGGAGGACGAUGCGGUCUACCCUUUAGCAGUAUUUGUUUCCAUCGUUGUUUGCCCCAGACGACUCGCCCGG
2. 8.6 (ssRNA, 2'-F C and U; 2'-OH A and G) RNA: GGGAGGACGAUGCGGAAACCAAAAGACCACAUCUCCAUACUCACGCUCUGCCCCAGACGACUCGCCCGA
3. 8.20 (ssRNA, 2'-F C and U; 2'-OH A and G) RNA: GGGAGGACGAUGCGGUCUCAACGAAGAACAUCGUUGGAUACUGUUUGUCCCGCCCCAGACGACUCGCCCGA

no binding
no binding
no binding
